- Test system: Plasmodium berghei
- TEST: Screen against P. berghei liver stage (PbLuc), transformed with Luciferase, at 10uM
- Assay type: functional, HepG2
- CONDITION_DETAILS: tested at 10 uM
Among all 69,000 compounds or so, about 8,600 (12%) showed an effect of 50% or more. For the sample, strong results were picked, then their nearest neighbours and some compounds at random.
Output MET for records whose INHIBITION is lower than 20%, NOT MET for records at or above 20%.

>  <MOLECULE>
c1ccc(OCCSC2=NCCN2)cc1

>  <CLASS_ASSIGNMENT>
NOT MET

$$$$
>  <MOLECULE>
CCOc1nn(CC)cc1-c1nnc(SCc2cccnc2)n1CC

>  <CLASS_ASSIGNMENT>
MET

$$$$
>  <MOLECULE>
Cc1nc(CNC(C)c2cccc(N3CCCC3=O)c2)cs1 (configuration not stated)

>  <CLASS_ASSIGNMENT>
NOT MET

$$$$

Could you now consider this next molecule?
Prompt: Say whether its INHIBITION is strictly beneath 20%. Entry: `Cc1csc([C@H]2C[C@@H]3CCN(Cc4cnn(C)c4)C[C@H]3O2)n1`
Response: MET

----------
- System: Plasmodium berghei
- TEST: Screen against P. berghei liver stage (PbLuc), transformed with Luciferase, at 10uM
- Assay type: functional, HepG2
- CONDITION_DETAILS: tested at 10 uM
The campaign covered roughly 69,000 compounds. About 8,600 (12%) showed an effect of 50% or more. Many of the other results were omitted from the sample, so strong results are more common in it than they were.
Label TRUE when INHIBITION is at or above 10%; anything below gets FALSE.

Recorded results for 3 molecules are shown here.
>  <MOLECULE>
N#CC1(C(=O)N2CCCN(c3nccs3)CC2)CCCCC1

>  <SYSTEM_UNDER_TEST>
Plasmodium berghei

>  <CLASS_ASSIGNMENT>
TRUE

$$$$
>  <MOLECULE>
CNc1nc(C2CCCN(C(=O)C(C)(C)OC)C2)nc2c1CN(C)CC2 (stereo unspecified)

>  <SYSTEM_UNDER_TEST>
Plasmodium berghei

>  <CLASS_ASSIGNMENT>
FALSE

$$$$
>  <MOLECULE>
Cc1ccc(CN2CCC3(CCCN3S(C)(=O)=O)CC2)s1

>  <SYSTEM_UNDER_TEST>
Plasmodium berghei

>  <CLASS_ASSIGNMENT>
TRUE

$$$$

Prompt: Does the reported INHIBITION for `N#Cc1ccc(NCc2cc3n(n2)CCCN(C(=O)C2CCC2)C3)nc1` fall at or above the 10% mark?
Response: TRUE

Prompt: Hi, just wondering whether `CCN(CC)CCn1cc(NC2CCSCC2)cn1` shows INHIBITION of 10% or higher.
Response: FALSE

----------
- Test system: Plasmodium berghei
- TEST: Screen against P. berghei liver stage (PbLuc), transformed with Luciferase, at 10uM
- Assay type: functional, HepG2
- CONDITION_DETAILS: tested at 10 uM
Out of some 69,000 compounds screened, about 8,600 (12%) showed an effect of 50% or more. Shown is part of a subset that was picked to be rich in strong results.
As shown below, each of these compounds has a reported INHIBITION value.

Here are 2 compounds together with their reported answers.
>  <COMPOUND>
Cc1cccc(C2(O)CCN(Cc3ccccc3N3CCCC3)CC2)c1

>  <INHIBITION>
61%

$$$$
>  <COMPOUND>
O=C(Nc1ccccc1)C1CN(CC2CCOCC2)CC12CCOCC2 (stereo unspecified)

>  <INHIBITION>
-42.9%

$$$$

As a next step, examine the compound that follows.
Prompt: I have this compound here, `CS(=O)(=O)N1C[C@@H]2COC[C@@H](CC(=O)N3CCCCO3)[C@@H]2C1` , and I need its recorded INHIBITION.
Response: 28.2%

----------
Reported INHIBITION is given for each of the following compounds.
- Tested on: Plasmodium berghei
- TEST: Screen against P. berghei liver stage (PbLuc), transformed with Luciferase, at 10uM
- Format: functional, HepG2
- CONDITION_DETAILS: tested at 10 uM
Screen size: about 69,000 compounds; about 8,600 (12%) showed an effect of 50% or more. The entries come from a sample that favours strong results as a whole.

>  <COMPOUND>
O=S1(=O)COCCN1Cc1ccc(F)cc1Cl

>  <INHIBITION>
33.9%

$$$$
>  <COMPOUND>
Cc1cc2nc(C(C)C)cc(N(C)CC3CCCN3C)n2n1 (configuration not stated)

>  <INHIBITION>
33%

$$$$
>  <COMPOUND>
Cc1noc(CCCC(=O)NCC2CCS(=O)(=O)C2)n1 (configuration not stated)

>  <INHIBITION>
-7.35%

$$$$
>  <COMPOUND>
Cc1cccc(CN2CCC(c3nccn3CC(N)=O)CC2)n1

>  <INHIBITION>
58.3%

$$$$
>  <COMPOUND>
CCn1ccnc1CN1CCCC(CO)(Cc2cccc(Cl)c2)C1 (configuration not stated)

>  <INHIBITION>
79.3%

$$$$

# context switch: different compound, same INHIBITION
Prompt: Data request, read-out INHIBITION, for `COCCNC(=O)Cn1cc(NC(=O)c2cc(Cl)c(Cl)n2C)cn1`
Response: 12.9%

----------
- Test system: Plasmodium berghei
- TEST: Screen against P. berghei liver stage (PbLuc), transformed with Luciferase, at 10uM
- Type: functional, HepG2
- CONDITION_DETAILS: tested at 10 uM
The campaign covered roughly 69,000 compounds. About 8,600 (12%) showed an effect of 50% or more. The sample holds strong results, similar compounds and a random draw of the others, so the mix is not that of the screen.
Item-by-item account of INHIBITION
Value expressed in %; do not type the unit.

>  <COMPOUND>
O=S(=O)(c1cnccc1N1CCN(CCO)CC1)N1CCCCC1

>  <SYSTEM_UNDER_TEST>
Plasmodium berghei

>  <INHIBITION / %>
8.38

$$$$

Prompt: Reported INHIBITION for `Cc1cc(C)n(CC(=O)N2CCC(c3cc4cccnc4[nH]3)CC2)n1` : what is it?
Response: 1.62

Prompt: Requested read-out: INHIBITION. Entry: `CCN(Cc1cc(Cl)ccc1OC)Cc1cc(C)nn1C`
Response: 57.9

Prompt: Consider the compound CC(C(=O)NCCCN1CCOCC1)n1cncn1 (stereo not drawn) and give its measured INHIBITION.
Response: -22.9

----------
- System: Plasmodium berghei
- TEST: Screen against P. berghei liver stage (PbLuc), transformed with Luciferase, at 10uM
- Type: functional, HepG2
- CONDITION_DETAILS: tested at 10 uM
Hit rate of the full screen: of about 69,000 compounds, about 8,600 (12%) showed an effect of 50% or more. The entries come from a sample that favours strong results as a whole.
Entry class follows INHIBITION: Low (below 10%), Mid (10% to below 40%), High (40% or more)

>  <COMPOUND>
COc1ccc(F)c(CN2CCCC(O)(CNCC(C)(C)C)C2=O)c1 (configuration not stated)

>  <CLASS_ASSIGNMENT>
High

$$$$
>  <COMPOUND>
CCN(CC)c1ncc(CNC2CCc3ncnn3C2)s1 (configuration not stated)

>  <CLASS_ASSIGNMENT>
Low

$$$$
>  <COMPOUND>
CCn1ncc2c1C(COCC1CC1)N(Cc1nccs1)CC2 (configuration not stated)

>  <CLASS_ASSIGNMENT>
Mid

$$$$

Prompt: Band assignment needed for COc1ccc(F)c(CN2CCCC(O)(CNC3CCCCC3)C2=O)c1 (configuration not stated) please.
Response: Low

Prompt: GET /class?item= `Cc1cncc(C(=O)N2CCN(c3cnn(C)c(=O)c3)CC2)c1`
Response: Low

Prompt: The entry to classify is COCCN(Cc1ccc(C)cc1)CC1CCOC1 (configuration not stated) ; which class holds it?
Response: High

Prompt: For this compound, which bin applies? COc1ccc(CN(Cc2cncn2C)CC2CCCO2)cc1OC (configuration not stated)
Response: Mid

Prompt: Categorize the following entry: `Cc1noc(C)c1CN1C[C@H](OCC2CC2)[C@H]2COC[C@H]21`
Response: Low

Prompt: Category of `Cc1noc(C)c1CN1C[C@H](OCC2CC2)[C@H]2OCCC[C@H]21` :
Response: Low

Prompt: Which bin, given its INHIBITION, does `Cc1noc(C)c1CN1CC[C@@H](OCC2CC2)[C@@H](Cc2ccccc2)C1` occupy?
Response: High

Prompt: Given `Cc1noc(C)c1CN1C[C@H](OCC2CCN(C)CC2)[C@H]2COC[C@H]21` , name the class its INHIBITION places it in.
Response: Low

Prompt: Could you place `c1cnc(-c2noc(C3CN(Cc4ccsc4)C3)n2)cn1` in its proper category? Many thanks.
Response: Mid
